A collection of binders and their measured residual hCCL1 (100 nM) Gi2 response, protocol #3, mAb 0.5 µg/mL
target: human CCR8 (human, UniProt P51685 1-355); assay: cell-based or functional assay
MEASURED_PROPERTY: residual hCCL1 (100 nM) Gi2 response, protocol #3, mAb 0.5 µg/mL (%)

{"columns": ["BINDER", "READING"],
 "data": [
  ["anti-CCR8 mAb 1-17 (antibody, V domains shown, Murine hybridoma mAb) VH: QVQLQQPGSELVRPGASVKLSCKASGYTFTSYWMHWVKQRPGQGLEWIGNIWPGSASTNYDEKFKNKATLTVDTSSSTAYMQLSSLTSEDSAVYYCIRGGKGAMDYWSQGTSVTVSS VL: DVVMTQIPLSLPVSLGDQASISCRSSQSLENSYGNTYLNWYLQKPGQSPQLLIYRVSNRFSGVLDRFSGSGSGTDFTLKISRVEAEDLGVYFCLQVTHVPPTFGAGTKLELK", 90],
  ["anti-CCR8 mAb 1-12 (antibody, V domains shown, Murine hybridoma mAb) VH: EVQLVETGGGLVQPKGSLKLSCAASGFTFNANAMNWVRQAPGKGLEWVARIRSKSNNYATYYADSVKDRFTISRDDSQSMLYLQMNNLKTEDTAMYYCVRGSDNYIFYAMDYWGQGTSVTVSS VL: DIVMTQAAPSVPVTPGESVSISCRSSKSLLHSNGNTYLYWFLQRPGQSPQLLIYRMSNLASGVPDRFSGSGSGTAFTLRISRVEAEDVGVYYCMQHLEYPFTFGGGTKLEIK", 75],
  ["anti-CCR8 mAb 1-6 (antibody, V domains shown, Murine hybridoma mAb) VH: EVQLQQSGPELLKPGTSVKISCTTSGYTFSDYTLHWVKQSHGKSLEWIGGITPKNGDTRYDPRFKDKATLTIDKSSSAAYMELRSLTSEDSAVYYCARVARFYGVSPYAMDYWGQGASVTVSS VL: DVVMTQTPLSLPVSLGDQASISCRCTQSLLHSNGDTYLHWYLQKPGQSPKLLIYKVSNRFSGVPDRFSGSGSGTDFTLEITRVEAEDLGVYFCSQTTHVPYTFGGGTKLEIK", 64]
]}
